biological target: PI3K δ (Homo sapiens); construct: purchased Upstate; assay: PI 3-Kinase HTRF inhibition assay, PI3K δ; assay type: biochemical; conditions: in vitro; read-out: PI3K δ IC50
Sequence (O00329 whole entry): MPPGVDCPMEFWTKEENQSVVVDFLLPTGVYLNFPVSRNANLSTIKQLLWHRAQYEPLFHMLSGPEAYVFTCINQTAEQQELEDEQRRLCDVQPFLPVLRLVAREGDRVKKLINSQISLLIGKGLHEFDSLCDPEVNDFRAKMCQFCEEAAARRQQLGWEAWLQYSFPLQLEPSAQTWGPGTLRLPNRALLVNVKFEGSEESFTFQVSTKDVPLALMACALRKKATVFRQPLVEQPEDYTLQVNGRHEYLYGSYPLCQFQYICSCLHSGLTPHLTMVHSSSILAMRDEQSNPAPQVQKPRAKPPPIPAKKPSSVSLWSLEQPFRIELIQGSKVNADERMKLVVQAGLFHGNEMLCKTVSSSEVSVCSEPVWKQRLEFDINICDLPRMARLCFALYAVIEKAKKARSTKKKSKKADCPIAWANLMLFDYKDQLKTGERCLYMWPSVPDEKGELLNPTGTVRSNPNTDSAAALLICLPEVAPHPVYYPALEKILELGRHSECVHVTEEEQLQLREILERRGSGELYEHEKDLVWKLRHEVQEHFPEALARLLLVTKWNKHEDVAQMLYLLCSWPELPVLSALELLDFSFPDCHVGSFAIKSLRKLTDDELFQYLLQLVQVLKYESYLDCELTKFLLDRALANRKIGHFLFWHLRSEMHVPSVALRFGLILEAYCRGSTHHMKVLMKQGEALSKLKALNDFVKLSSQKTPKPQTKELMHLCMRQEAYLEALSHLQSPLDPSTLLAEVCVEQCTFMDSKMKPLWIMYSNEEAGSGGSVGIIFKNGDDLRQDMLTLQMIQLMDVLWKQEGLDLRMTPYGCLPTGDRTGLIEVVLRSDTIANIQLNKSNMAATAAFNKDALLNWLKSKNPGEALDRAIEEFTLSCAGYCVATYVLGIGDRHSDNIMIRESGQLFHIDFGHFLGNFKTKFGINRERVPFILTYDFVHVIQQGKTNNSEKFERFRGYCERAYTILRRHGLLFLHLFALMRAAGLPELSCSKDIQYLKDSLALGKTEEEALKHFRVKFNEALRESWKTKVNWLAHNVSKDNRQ
Sequence (P27986 whole entry partner): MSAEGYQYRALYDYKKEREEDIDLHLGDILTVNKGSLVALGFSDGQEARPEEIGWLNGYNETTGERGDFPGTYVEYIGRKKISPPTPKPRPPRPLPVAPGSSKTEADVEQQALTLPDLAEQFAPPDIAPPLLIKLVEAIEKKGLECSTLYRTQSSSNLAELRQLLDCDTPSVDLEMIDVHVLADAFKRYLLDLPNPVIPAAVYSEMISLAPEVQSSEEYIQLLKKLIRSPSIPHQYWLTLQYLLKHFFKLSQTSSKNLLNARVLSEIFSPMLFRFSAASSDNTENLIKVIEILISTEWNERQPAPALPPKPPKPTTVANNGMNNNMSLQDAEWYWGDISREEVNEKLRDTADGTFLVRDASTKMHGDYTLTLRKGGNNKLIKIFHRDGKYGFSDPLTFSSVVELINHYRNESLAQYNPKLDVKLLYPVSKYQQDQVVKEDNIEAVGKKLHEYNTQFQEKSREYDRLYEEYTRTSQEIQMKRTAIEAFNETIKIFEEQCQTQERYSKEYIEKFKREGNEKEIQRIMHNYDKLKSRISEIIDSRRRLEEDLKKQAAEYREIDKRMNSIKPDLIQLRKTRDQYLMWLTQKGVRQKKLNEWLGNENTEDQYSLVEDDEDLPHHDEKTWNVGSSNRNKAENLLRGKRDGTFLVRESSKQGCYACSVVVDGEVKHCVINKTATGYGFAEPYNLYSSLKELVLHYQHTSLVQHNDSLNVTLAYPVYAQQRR
The reader will find reported IC50 values listed item by item below.

Below, 3 compounds whose answers are already recorded.
{"COMPOUND": "Nc1nc2cc(-c3ccc4ncc(-c5cccnc5)cc4n3)ccc2o1", "MEASUREMENT_TYPE": "IC50", "RESULT": "< 10 µM"}
{"COMPOUND": "Nc1nc2cc(-c3ccc4ncc(N5CC(N6CCOCC6)C5)nc4n3)ccc2o1", "MEASUREMENT_TYPE": "IC50", "RESULT": "< 10 µM"}
{"COMPOUND": "CC1(C)CN(C2CN(c3cnc4ccc(-c5ccc6oc(N)nc6c5)nc4n3)C2)CCN1", "MEASUREMENT_TYPE": "IC50", "RESULT": "< 1 µM"}

// IC50 (PI3K δ (Homo sapiens)) for C[C@@H]1CN(C2CN(c3cnc4ccc(-c5ccc6nc(N)[nH]c6c5)nc4c3)C2)CCN1C = > 10 µM

Response field IC50 (PI3K δ (Homo sapiens)) for item C[C@@H]1CN(C2CN(c3cnc4ccc(-c5ccc6oc(N)nc6c5)nc4c3)C2)CCN1C : < 1 µM

Given the compound C[C@@H](N)C(=O)N1CCN(c2cnc3ccc(-c4ccc5oc(N)nc5c4)nc3n2)CC1 and test system PI3K δ (Homo sapiens), the measured IC50 is < 10 µM

IC50 on PI3K δ (Homo sapiens) for CN1CC2CN(c3cnc4ccc(-c5ccc6oc(N)nc6c5)nc4n3)CC2C1 (centres unmarked) is < 1 µM
